Kindly supply the reported Ki values for the records listed here.
- studySystem: human GlyT1c transporter (Homo sapiens (Human))
- Sequence (P48067 whole entry): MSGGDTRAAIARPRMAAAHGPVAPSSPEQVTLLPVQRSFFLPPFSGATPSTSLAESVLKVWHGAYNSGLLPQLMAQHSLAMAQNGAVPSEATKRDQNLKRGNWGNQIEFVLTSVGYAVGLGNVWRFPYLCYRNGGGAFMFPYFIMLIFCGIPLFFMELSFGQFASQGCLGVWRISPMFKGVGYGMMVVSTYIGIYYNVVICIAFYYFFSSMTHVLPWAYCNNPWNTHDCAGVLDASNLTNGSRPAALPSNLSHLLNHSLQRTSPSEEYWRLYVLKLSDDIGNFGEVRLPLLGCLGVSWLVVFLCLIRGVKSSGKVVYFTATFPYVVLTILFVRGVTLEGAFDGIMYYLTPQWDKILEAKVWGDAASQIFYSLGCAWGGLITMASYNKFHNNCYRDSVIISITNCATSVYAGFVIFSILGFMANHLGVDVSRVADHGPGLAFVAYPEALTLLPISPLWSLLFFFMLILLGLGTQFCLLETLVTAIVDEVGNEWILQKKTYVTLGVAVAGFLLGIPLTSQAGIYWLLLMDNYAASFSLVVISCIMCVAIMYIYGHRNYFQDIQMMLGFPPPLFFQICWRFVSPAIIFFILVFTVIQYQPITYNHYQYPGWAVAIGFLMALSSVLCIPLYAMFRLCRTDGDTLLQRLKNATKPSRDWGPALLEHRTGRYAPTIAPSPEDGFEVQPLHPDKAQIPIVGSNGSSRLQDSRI
- runDescription: Radioligand binding assay using recombinant CHO cell membranes expressing human GlyT1
- particulars: human GlyT1c-expressing CHO cell membranes; read-out: radioligand binding Kiapp
Counter-ions that a name gives are not always drawn.

Ask | Would you mind telling me what Ki value was observed for O=S(=O)(CC1CC1)NCCOc1ccc2c(c1)C(Cc1ccccc1)C(N1CCC1)CC2 (single isomer, unassigned; (-)) [Example 143] ?
Reply | ≤ 10 nM

Ask | Entry to check: Cc1ccc(S(=O)(=O)NCCOc2ccc3c(c2)C(Cc2ccc(Cl)cc2Cl)C(N)CC3)s1 (stereo not drawn) [Example 73, hydrochloride]
Reply | ≤ 1000 nM

Ask | Entry to check: CCOC(=O)NC1CCc2ccc(OCCNS(=O)(=O)c3cn(C)cn3)cc2C1Cc1ccc(Cl)c(Cl)c1 (stereo not drawn) [Example 2]
Reply | ≤ 100 nM

Ask | Entry to check: Cn1cnc(S(=O)(=O)NCCOc2ccc3c(c2)C(Cc2ccccc2Cl)C(N2CCCC2)CC3)c1 (stereo not drawn) [Example 315, hydrochloride]
Reply | ≤ 1000 nM

Ask | Entry to check: CCOC(=O)NC1CCc2ccc(OCCNS(=O)(=O)c3ccc(C)s3)cc2C1Cc1cccc(Cl)c1 (stereo not drawn) [Example 53]
Reply | ≤ 10000 nM

Ask | Entry to check: CCCS(=O)(=O)NCCCc1ccc2c(c1)C(Cc1cccc(F)c1)C(NCC)CC2 (stereo not drawn) [Example 219, hydrochloride]
Reply | ≤ 100 nM

Ask | Entry to check: CCCS(=O)(=O)N1CCC[C@@H]1COc1ccc2c(c1)C(Cc1cccc(Cl)c1)C(N)CC2 (stereo partly drawn) [Example 82, hydrochloride]
Reply | ≤ 100 nM

Ask | Entry to check: CCOC(=O)NC1CCc2ccc(OCCNS(=O)(=O)c3ccccc3)cc2C1Cc1ccc(Cl)c(Cl)c1 (stereo not drawn) [Example 13]
Reply | ≤ 100000 nM

Ask | Entry to check: CCOC(=O)NC1CCc2ccc(OCCNS(=O)(=O)c3cn(C)cn3)cc2C1Cc1ccccc1Cl (stereo not drawn) [Example 298]
Reply | ≤ 10000 nM

Ask | Entry to check: CNC1CCc2ccc(OCCNS(=O)(=O)CC3CC3)cc2C1Cc1cc(F)cc(F)c1 (stereo not drawn) [Example 243, hydrochloride]
Reply | ≤ 10 nM

Ask | Entry to check: Cn1ccc(S(=O)(=O)NCCOc2ccc3c(c2)C(Cc2cccc(F)c2)C(N2CCCC2)CC3)c1 (stereo not drawn) [Example 149, hydrochloride]
Reply | ≤ 100 nM

Ask | Entry to check: CCOC(=O)NC1CCc2ccc(OCCNS(=O)(=O)c3cc(C)sc3C)cc2C1Cc1cccc(Cl)c1 (stereo not drawn) [Example 60]
Reply | ≤ 10000 nM

Ask | Entry to check: N#Cc1cccc(CC2c3cc(OCCNS(=O)(=O)CC4CC4)ccc3CCC2N2CCCC2)c1 (stereo not drawn) [Example 155, hydrochloride]
Reply | ≤ 1000 nM

Ask | Entry to check: CCOC(=O)NC1CCc2ccc(OCCNS(=O)(=O)c3cc(C)cs3)cc2C1Cc1cccc(Cl)c1 (stereo not drawn) [Example 54]
Reply | ≤ 10000 nM

Ask | Entry to check: Cc1nc(C)c(S(=O)(=O)NCCOc2ccc3c(c2)C(Cc2cccc(Cl)c2)C(N)CC3)s1 (stereo not drawn) [Example 57]
Reply | ≤ 1000 nM

Ask | Entry to check: NC1CCc2ccc(OCCNC(=O)c3ccccc3)cc2C1Cc1ccc(Cl)c(Cl)c1 (stereo not drawn) [Example 123, hydrochloride]
Reply | ≤ 10000 nM

Ask | Entry to check: CC(C)NC1CCc2ccc(OCCNS(=O)(=O)c3cn(C)cn3)cc2C1Cc1cccc(C#N)c1 (stereo not drawn) [Example 154, hydrochloride]
Reply | ≤ 100 nM

Ask | Entry to check: NC1CCc2ccc(OCCNS(=O)(=O)CC3CC3)cc2C1Cc1cccc(Cl)c1 (stereo not drawn) [Example 288, hydrochloride]
Reply | ≤ 10 nM
